TEST_METHOD_NOTES: Plasma pharmacokinetics of Compound 1 and metabolite 1-7 (LC-MS/MS) in Parts C, D and E
Format: in vivo, human
CONDITION_SUMMARY: human, in vivo, 600 mg/d, Part C, NC GT1b, 600 mg/d Compound 2 QD, n=6; read-out: Tmax Day 1
MEASURED_ATTRIBUTE: Tmax

{"columns": ["COMPOUND_SMILES", "MEASURED_ATTRIBUTE", "VALUE_REPORTED"],
 "data": [
  ["CNc1nc(N)nc2c1ncn2[C@@H]1O[C@H](CO[P@@](=O)(N[C@@H](C)C(=O)OC(C)C)Oc2ccccc2)[C@@H](O)[C@@]1(C)F", "Tmax", "30 min"]
]}

====

TEST_METHOD_NOTES: Plasma pharmacokinetics of Compound 1 and metabolite 1-7 (LC-MS/MS) in Parts C, D and E
Format: in vivo, human
CONDITION_SUMMARY: human, plasma, oral, 600 mg/d, Part C, NC GT1b, 600 mg/d Compound 2 QD, n=6; read-out: Cmax Day 1

{"columns": ["MOLECULE", "Cmax"],
 "data": [
  ["C[C@@]1(F)[C@H](O)[C@@H](CO)O[C@H]1n1cnc2c(=O)[nH]c(N)nc21 [Metabolite 1-7]", "197 ng/mL"]
]}

====

TEST_METHOD_NOTES: Plasma pharmacokinetics of Compound 1 and metabolite 1-7 (LC-MS/MS) in Parts C, D and E
Assay type: in vivo, human
CONDITION_SUMMARY: human, plasma, oral, 600 mg/d, Part E, Child-Pugh A cirrhotic, 600 mg/d Compound 2 QD, n=6; read-out: Cmax Day 1

{"columns": ["MOLECULE", "Cmax, ng/mL"],
 "data": [
  ["C[C@@]1(F)[C@H](O)[C@@H](CO)O[C@H]1n1cnc2c(=O)[nH]c(N)nc21 [Metabolite 1-7]", 201]
]}

====

TEST_METHOD_NOTES: Plasma pharmacokinetics of Compound 1 and metabolite 1-7 (LC-MS/MS) in Parts C, D and E
Type: in vivo, human
CONDITION_SUMMARY: human, plasma, oral, 600 mg/d, Part D, NC GT3, 600 mg/d Compound 2 QD, n=6; trough after the first dose; read-out: C24 h Day 1
MEASURED_ATTRIBUTE: concentration at 24 h (ng/mL)

{"columns": ["COMPOUND", "UNIT_NAME", "VALUE_REPORTED"],
 "data": [
  ["C[C@@]1(F)[C@H](O)[C@@H](CO)O[C@H]1n1cnc2c(=O)[nH]c(N)nc21 [Metabolite 1-7]", "ng/mL", 30.1]
]}

====

TEST_METHOD_NOTES: Plasma pharmacokinetics of Compound 1 and metabolite 1-7 (LC-MS/MS) in Parts C, D and E
Type: in vivo, human
CONDITION_SUMMARY: human, plasma, oral, 150 mg/d, steady state; Part C, NC GT1b, 150 mg/d Compound 2 QD, n=6; read-out: T1/2 SS (converted)
Protocol: Doses were administered as the Compound 2 salt base. The free base Compound 1 equivalent is often given in parenthesis. Part C was a randomized, double-blind, placebo-controlled MAD study divided into three cohorts. […] HCV-infected patients were treatment-naïve with HCV RNA ≥5 log 10 IU/mL. HCV RNA was quantified using COBAS® AmpliPrep TaqMAN® v2.0 with LLQ of 15 IU/mL. Plasma drug levels were measured using LC-MS/MS. […] Plasma levels of metabolite 1-7 were measured using LC-MS/MS.

{"columns": ["COMPOUND", "UNIT_NAME", "half-life"],
 "data": [
  ["C[C@@]1(F)[C@H](O)[C@@H](CO)O[C@H]1n1cnc2c(=O)[nH]c(N)nc21 [Metabolite 1-7]", "h", 12.5]
]}
